Just for reference, paper PMC7991740 is where these values come from.

Target: HLA-DRB1*11:01 (Homo sapiens, UniProt P01903+P01911, A100R/A169T/A87E/I96F/K41T/L162R/M171V/P40S/Q125H/Q178H/Q39Y/Q99D/R42S/S66Y/T262R/V115G/W38E)
Sequence (P01903 26-254 limits assumed, other chains not shown): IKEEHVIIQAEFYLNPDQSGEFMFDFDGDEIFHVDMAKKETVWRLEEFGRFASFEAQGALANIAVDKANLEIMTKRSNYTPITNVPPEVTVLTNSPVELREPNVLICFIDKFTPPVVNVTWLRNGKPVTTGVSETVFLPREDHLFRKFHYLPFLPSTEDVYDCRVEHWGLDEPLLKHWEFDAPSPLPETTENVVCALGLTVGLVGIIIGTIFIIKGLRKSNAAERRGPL
Assay: biochemical
Format: binding
Conditions: […]; mean of at least two independent experiments; read-out: IC50 DRB1*1101 (converted)
Where a SMILES comes first, the peptide text is derived from it. [ ]: non-standard residue; d: D form. Aib = CC(C)(N)C(=O)O
metricName: IC50 (nM)
Reply with just the number (in nM).

Known results for molecules:
molecule	IC50 (nM)
CC(C)C[C@H](NC(=O)[C@H](CCCCN)NC(=O)[C@H](CC(C)C)NC(=O)[C@@H](NC(=O)[C@H](CC(N)=O)NC(=O)CN(CCC(N)=O)C(=O)[C@H](CCCCN)NC(=O)[C@@H](NC(=O)[C@H](Cc1ccc(O)cc1)NC(=O)[C@H](CCCCN)NC(=O)[C@@H]1CCCN1)C(C)C)[C@@H](C)O)C(=O)N[C@@H](C)C(=O)N[C@H](C(=O)O)[C@@H](C)O	45
CC(C)C[C@H](NC(=O)[C@H](CCCCN)NC(=O)[C@H](CC(C)C)NC(=O)[C@@H](NC(=O)[C@H](CC(N)=O)NC(=O)[C@H](CCC(N)=O)NC(=O)[C@H](CCCCN)NC(=O)[C@@H](NC(=O)[C@H](Cc1ccc(O)cc1)NC(=O)[C@H](CCCCN)NC(=O)[C@@H]1CCCN1)C(C)C)[C@@H](C)O)C(=O)N[C@@H](C)C(=O)NC(C)(C)C(=O)O	8
CC(C)C[C@H](NC(=O)[C@H](CCCCN)NC(=O)[C@H](CC(C)C)NC(=O)[C@@H](NC(=O)[C@H](CC(N)=O)NC(=O)[C@H](CCC(N)=O)NC(=O)C(C)(C)NC(=O)[C@@H](NC(=O)[C@H](Cc1ccc(O)cc1)NC(=O)[C@H](CCCCN)NC(=O)[C@@H]1CCCN1)C(C)C)[C@@H](C)O)C(=O)N[C@@H](C)C(=O)N[C@H](C(=O)O)[C@@H](C)O	300
CC(C)C[C@H](NC(=O)[C@@H](NC(=O)[C@H](CC(N)=O)NC(=O)[C@H](CCC(N)=O)NC(=O)[C@H](CCCCN)NC(=O)[C@@H](NC(=O)[C@H](Cc1ccc(O)cc1)NC(=O)[C@H](CCCCN)NC(=O)[C@@H]1CCCN1)C(C)C)[C@@H](C)O)C(=O)N[C@@H](CCCCN)C(=O)N[C@@H](CC(C)C)C(=O)N(C)CC(=O)N[C@H](C(=O)O)[C@@H](C)O	14
CC(C)C[C@H](NC(=O)[C@H](CCCCN)NC(=O)[C@H](CC(C)C)NC(=O)[C@@H](NC(=O)[C@H](CC(N)=O)NC(=O)[C@H](CCC(N)=O)NC(=O)[C@H](CCCCN)NC(=O)[C@@H](NC(=O)[C@H](Cc1ccc(O)cc1)NC(=O)[C@H](CCCCN)NC(=O)C(C)(C)N)C(C)C)[C@@H](C)O)C(=O)N[C@@H](C)C(=O)N[C@H](C(=O)O)[C@@H](C)O [Aib1] (H-[Aib]KYVKQNTLKLAT-OH)	18

Please indicate IC50 recorded for CC(C)C[C@H](NC(=O)[C@@H](NC(=O)[C@H](CC(N)=O)NC(=O)[C@H](CCC(N)=O)NC(=O)[C@H](CCCCN)NC(=O)[C@@H](NC(=O)[C@H](Cc1ccc(O)cc1)NC(=O)[C@H](CCCCN)NC(=O)[C@@H]1CCCN1)C(C)C)[C@@H](C)O)C(=O)NC(C)(C)C(=O)N[C@@H](CC(C)C)C(=O)N[C@@H](C)C(=O)N[C@H](C(=O)O)[C@@H](C)O 8000

Please indicate IC50 recorded for CC(C)C[C@H](NC(=O)[C@H](CCCCN)NC(=O)[C@H](CC(C)C)NC(=O)[C@@H](NC(=O)[C@H](CC(N)=O)NC(=O)[C@H](CCC(N)=O)NC(=O)[C@H](CCCCN)NC(=O)[C@@H](NC(=O)[C@H](Cc1ccc(O)cc1)NC(=O)C(C)(C)NC(=O)[C@@H]1CCCN1)C(C)C)[C@@H](C)O)C(=O)N[C@@H](C)C(=O)N[C@H](C(=O)O)[C@@H](C)O [Aib2] (H-P[Aib]YVKQNTLKLAT-OH) 4000

Please indicate IC50 recorded for CC(C)C[C@H](NC(=O)[C@H](CCCCN)NC(=O)[C@H](CC(C)C)NC(=O)[C@@H](NC(=O)C(C)(C)NC(=O)[C@H](CCC(N)=O)NC(=O)[C@H](CCCCN)NC(=O)[C@@H](NC(=O)[C@H](Cc1ccc(O)cc1)NC(=O)[C@H](CCCCN)NC(=O)[C@@H]1CCCN1)C(C)C)[C@@H](C)O)C(=O)N[C@@H](C)C(=O)N[C@H](C(=O)O)[C@@H](C)O [Aib7] (H-PKYVKQ[Aib]TLKLAT-OH) 6000

Please indicate IC50 recorded for CC(C)C[C@H](NC(=O)[C@H](CCCCN)NC(=O)[C@H](CC(C)C)NC(=O)[C@@H](NC(=O)[C@H](CC(N)=O)NC(=O)[C@H](CCC(N)=O)NC(=O)[C@H](CCCCN)NC(=O)C(C)(C)NC(=O)[C@H](Cc1ccc(O)cc1)NC(=O)[C@H](CCCCN)NC(=O)[C@@H]1CCCN1)[C@@H](C)O)C(=O)N[C@@H](C)C(=O)N[C@H](C(=O)O)[C@@H](C)O 4000

* * *

Biological target: HLA-DRB1*04:01 (Homo sapiens, UniProt P01903+P01911, A100K/A169T/F76Y/I96L/K127E/L162R/M171V/N62H/P40V/Q125Y/R42H/S133A/S149N/S66Y/V115G/V209L/W38E)
Construct: Human leukocyte antigen-DR molecules were immunopurified from homozygous EBV B lymphoblastoid cells; endogenous in cells
Experiment: biochemical
Assay type: binding
Details: […]; mean of at least two independent experiments; read-out: IC50 DRB1*0401
Where a SMILES comes first, the peptide text is derived from it. [ ]: non-standard residue; d: D form. Aib = CC(C)(N)C(=O)O
metricName: IC50 (nM)
Reply with just the number (in nM).

compound	metricName	obsValue
CC(C)C[C@H](NC(=O)[C@H](CCCCN)NC(=O)[C@H](CC(C)C)NC(=O)[C@@H](NC(=O)[C@H](CC(N)=O)NC(=O)[C@H](CCC(N)=O)NC(=O)[C@H](CCCCN)NC(=O)[C@@H](NC(=O)[C@H](Cc1ccc(O)cc1)NC(=O)C(C)(C)NC(=O)[C@@H]1CCCN1)C(C)C)[C@@H](C)O)C(=O)N[C@@H](C)C(=O)N[C@H](C(=O)O)[C@@H](C)O [Aib2] (H-P[Aib]YVKQNTLKLAT-OH)	IC50	95

Let us examine a further case.
Please indicate IC50 recorded for CC(C)C[C@H](NC(=O)[C@H](CCCCN)NC(=O)[C@H](CC(C)C)NC(=O)[C@@H](NC(=O)[C@H](CC(N)=O)NC(=O)[C@H](CCC(N)=O)NC(=O)[C@H](CCCCN)NC(=O)C(C)(C)NC(=O)[C@H](Cc1ccc(O)cc1)NC(=O)[C@H](CCCCN)NC(=O)[C@@H]1CCCN1)[C@@H](C)O)C(=O)N[C@@H](C)C(=O)N[C@H](C(=O)O)[C@@H](C)O [Aib4] 75

* * *

Target: HLA-DRB1*01:01 (Homo sapiens, UniProt P01903+P01911, A100R/D57E/F55L/F60I/F76Y/I96L/L162R/M171V/P40L/Q125E/R42F/V115G/Y59C)
Construct: Human leukocyte antigen-DR molecules were immunopurified from homozygous EBV B lymphoblastoid cells; endogenous in cells
Test: biochemical
Assay type: binding
Settings: […]; mean of at least two independent experiments; read-out: IC50 DRB1*0101
Where a SMILES comes first, the peptide text is derived from it. [ ]: non-standard residue; d: D form. Aib = CC(C)(N)C(=O)O
metricName: pIC50
Would you please state pIC50, meaning minus log10 of the concentration in mol/L, as a bare number?

compound	obsValue
CC(C)C[C@H](NC(=O)[C@H](CCCCN)NC(=O)[C@H](CC(C)C)NC(=O)[C@@H](NC(=O)[C@H](CC(N)=O)NC(=O)[C@H](CCC(N)=O)NC(=O)[C@H](CCCCN)NC(=O)C(C)(C)NC(=O)[C@H](Cc1ccc(O)cc1)NC(=O)[C@H](CCCCN)NC(=O)[C@@H]1CCCN1)[C@@H](C)O)C(=O)N[C@@H](C)C(=O)N[C@H](C(=O)O)[C@@H](C)O	8.00

Please indicate pIC50 recorded for CC(C)C[C@H](NC(=O)[C@@H](NC(=O)[C@H](CC(N)=O)NC(=O)[C@H](CCC(N)=O)NC(=O)[C@H](CCCCN)NC(=O)[C@@H](NC(=O)[C@H](Cc1ccc(O)cc1)NC(=O)[C@H](CCCCN)NC(=O)[C@@H]1CCCN1)C(C)C)[C@@H](C)O)C(=O)N[C@@H](CCCCN)C(=O)N[C@@H](CC(C)C)C(=O)N(C)CC(=O)N[C@H](C(=O)O)[C@@H](C)O 9.52

Please indicate pIC50 recorded for CC(C)C[C@H](NC(=O)[C@H](CCCCN)NC(=O)[C@H](CC(C)C)NC(=O)[C@@H](NC(=O)[C@H](CC(N)=O)NC(=O)C(C)(C)NC(=O)[C@H](CCCCN)NC(=O)[C@@H](NC(=O)[C@H](Cc1ccc(O)cc1)NC(=O)[C@H](CCCCN)NC(=O)[C@@H]1CCCN1)C(C)C)[C@@H](C)O)C(=O)N[C@@H](C)C(=O)N[C@H](C(=O)O)[C@@H](C)O 9.15

Please indicate pIC50 recorded for CC(C)C[C@H](NC(=O)[C@H](CCCCN)NC(=O)[C@H](CC(C)C)NC(=O)[C@@H](NC(=O)[C@H](CC(N)=O)NC(=O)[C@H](CCC(N)=O)NC(=O)[C@H](CCCCN)NC(=O)[C@@H](NC(=O)[C@H](Cc1ccc(O)cc1)NC(=O)[C@H](CCCCN)NC(=O)C(C)(C)N)C(C)C)[C@@H](C)O)C(=O)N[C@@H](C)C(=O)N[C@H](C(=O)O)[C@@H](C)O [Aib1] (H-[Aib]KYVKQNTLKLAT-OH) 9.52

Please indicate pIC50 recorded for CC(C)C[C@H](NC(=O)[C@H](CCCCN)NC(=O)[C@H](CC(C)C)NC(=O)[C@@H](NC(=O)[C@H](CC(N)=O)NC(=O)CN(CCC(N)=O)C(=O)[C@H](CCCCN)NC(=O)[C@@H](NC(=O)[C@H](Cc1ccc(O)cc1)NC(=O)[C@H](CCCCN)NC(=O)[C@@H]1CCCN1)C(C)C)[C@@H](C)O)C(=O)N[C@@H](C)C(=O)N[C@H](C(=O)O)[C@@H](C)O 9.40

Please indicate pIC50 recorded for CC(C)C[C@H](NC(=O)[C@H](CCCCN)NC(=O)[C@H](CC(C)C)NC(=O)[C@@H](NC(=O)C(C)(C)NC(=O)[C@H](CCC(N)=O)NC(=O)[C@H](CCCCN)NC(=O)[C@@H](NC(=O)[C@H](Cc1ccc(O)cc1)NC(=O)[C@H](CCCCN)NC(=O)[C@@H]1CCCN1)C(C)C)[C@@H](C)O)C(=O)N[C@@H](C)C(=O)N[C@H](C(=O)O)[C@@H](C)O [Aib7] (H-PKYVKQ[Aib]TLKLAT-OH) 8.17

Please indicate pIC50 recorded for CC(C)C[C@H](NC(=O)[C@H](CCCCN)NC(=O)[C@H](CC(C)C)NC(=O)[C@@H](NC(=O)[C@H](CC(N)=O)NC(=O)[C@H](CCC(N)=O)NC(=O)[C@H](CCCCN)NC(=O)CN(C(=O)[C@H](Cc1ccc(O)cc1)NC(=O)[C@H](CCCCN)NC(=O)[C@@H]1CCCN1)C(C)C)[C@@H](C)O)C(=O)N[C@@H](C)C(=O)N[C@H](C(=O)O)[C@@H](C)O 8.30

Please indicate pIC50 recorded for CC(C)C[C@H](NC(=O)[C@H](CCCCN)NC(=O)[C@H](CC(C)C)NC(=O)[C@@H](NC(=O)[C@H](CC(N)=O)NC(=O)[C@H](CCC(N)=O)NC(=O)C(C)(C)NC(=O)[C@@H](NC(=O)[C@H](Cc1ccc(O)cc1)NC(=O)[C@H](CCCCN)NC(=O)[C@@H]1CCCN1)C(C)C)[C@@H](C)O)C(=O)N[C@@H](C)C(=O)N[C@H](C(=O)O)[C@@H](C)O 9.00
